B1: HHH_rd1_0493 (parent)
chain: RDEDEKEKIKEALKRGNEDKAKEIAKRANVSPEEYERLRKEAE

- Variants of: B1
- protocolSummary: folding stability dG (cDNA display proteolysis); higher = more stable
- details: PBS, room temperature
Listed here: items and their measured folding stability dG.
// note: answer is a bare numeric in kcal/mol

Y35Q	0.44

Now let's try a different one.
Ask | # return recorded folding stability dG for input `N29H`
Reply | 2.67
